Value source: patent US20120172293A1

Overview of recorded IC50 Ratio (IC50 compound/IC50 PYY(3-36)) for various binders
Biological target: human Y2 receptor (human) (UniProt P49146)
Sequence (P49146 whole entry): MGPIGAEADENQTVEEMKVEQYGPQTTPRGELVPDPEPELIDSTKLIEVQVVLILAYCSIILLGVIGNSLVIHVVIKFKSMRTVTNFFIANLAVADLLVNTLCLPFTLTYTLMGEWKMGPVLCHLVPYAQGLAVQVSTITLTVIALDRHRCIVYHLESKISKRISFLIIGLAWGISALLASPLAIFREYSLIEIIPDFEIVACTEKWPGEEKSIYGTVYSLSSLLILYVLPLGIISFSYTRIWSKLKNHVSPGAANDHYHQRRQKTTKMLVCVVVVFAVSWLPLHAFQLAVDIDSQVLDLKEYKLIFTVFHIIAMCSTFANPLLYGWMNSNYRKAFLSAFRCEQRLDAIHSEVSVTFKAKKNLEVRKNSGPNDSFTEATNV
Assay: RBA: displacement of [125I]-PYY from hY2R/CHO membranes
Non-standard residues stand in square brackets, D forms with d. *: point of attachment. Tetrahydropyran4carbonyl = O=C(C1CCOCC1)*; tBuAla = CC(C)(C)C[C@H](N)C(=O)O; 4Pal = N[C@@H](Cc1ccncc1)C(=O)O; dHyp = O=C(O)[C@H]1C[C@H](O)CN1; Cha = N[C@@H](CC1CCCCC1)C(=O)O; Iva = CC[C@](C)(N)C(=O)O; Aib = CC(C)(N)C(=O)O

Before answering, review these 3 worked examples.
binder	result
Tetrahydropyran4carbonyl-S[dP][Iva][4Pal][Cha][Aib]NK[Aib]TRQR[Cha]-NH2 (SMILES CC[C@](C)(NC(=O)[C@H]1CCCN1C(=O)[C@H](CO)NC(=O)C1CCOCC1)C(=O)N[C@@H](Cc1ccncc1)C(=O)N[C@@H](CC1CCCCC1)C(=O)NC(C)(C)C(=O)N[C@@H](CC(N)=O)C(=O)N[C@@H](CCCCN)C(=O)NC(C)(C)C(=O)N[C@H](C(=O)N[C@@H](CCCNC(=N)N)C(=O)N[C@@H](CCC(N)=O)C(=O)N[C@@H](CCCNC(=N)N)C(=O)N[C@@H](CC1CCCCC1)C(N)=O)[C@@H](C)O) [(Tetrahydro-2H-pyran-4-yl)carbonyl-[D-Pro24, Iva25, Pya(4)26, Cha27,36, Aib28,31, Lys30]-PYY(23-36)]	3.3
Ac-S[dHyp]RH[Cha][tBuAla]NK[Aib]TRQR[Cha]-NH2 (SMILES CC(=O)N[C@@H](CO)C(=O)N1C[C@@H](O)C[C@@H]1C(=O)N[C@@H](CCCNC(=N)N)C(=O)N[C@@H](Cc1c[nH]cn1)C(=O)N[C@@H](CC1CCCCC1)C(=O)N[C@@H](CC(C)(C)C)C(=O)N[C@@H](CC(N)=O)C(=O)N[C@@H](CCCCN)C(=O)NC(C)(C)C(=O)N[C@H](C(=O)N[C@@H](CCCNC(=N)N)C(=O)N[C@@H](CCC(N)=O)C(=O)N[C@@H](CCCNC(=N)N)C(=O)N[C@@H](CC1CCCCC1)C(N)=O)[C@@H](C)O) [Ac-[D-Hyp24, Cha27,36, Leu(Me)28, Lys30, Aib31]-PYY(23-36)]	0.38
Ac-E[dHyp]R[4Pal][Cha][Aib]NK[Aib]TRQR[Cha]-NH2 (SMILES CC(=O)N[C@@H](CCC(=O)O)C(=O)N1C[C@@H](O)C[C@@H]1C(=O)N[C@@H](CCCNC(=N)N)C(=O)N[C@@H](Cc1ccncc1)C(=O)N[C@@H](CC1CCCCC1)C(=O)NC(C)(C)C(=O)N[C@@H](CC(N)=O)C(=O)N[C@@H](CCCCN)C(=O)NC(C)(C)C(=O)N[C@H](C(=O)N[C@@H](CCCNC(=N)N)C(=O)N[C@@H](CCC(N)=O)C(=O)N[C@@H](CCCNC(=N)N)C(=O)N[C@@H](CC1CCCCC1)C(N)=O)[C@@H](C)O) [Ac-[Glu23, D-Hyp24, Pya(4)26, Cha27,36, Aib28,31, Lys30]-PYY(23-36)]	3.4

Prompt: Look at this binder and give its reported IC50 Ratio (IC50 compound/IC50 PYY(3-36)). Ac-S[dP][Aib]H[Cha][Aib]NK[Aib]TRQR[Cha]-NH2 (SMILES CC(=O)N[C@@H](CO)C(=O)N1CCC[C@@H]1C(=O)NC(C)(C)C(=O)N[C@@H](Cc1c[nH]cn1)C(=O)N[C@@H](CC1CCCCC1)C(=O)NC(C)(C)C(=O)N[C@@H](CC(N)=O)C(=O)N[C@@H](CCCCN)C(=O)NC(C)(C)C(=O)N[C@H](C(=O)N[C@@H](CCCNC(=N)N)C(=O)N[C@@H](CCC(N)=O)C(=O)N[C@@H](CCCNC(=N)N)C(=O)N[C@@H](CC1CCCCC1)C(N)=O)[C@@H](C)O) [Ac-[D-Pro24, Aib25,28,31, Cha27,36, Lys30]-PYY(23-36)]
Response: 24
